Value source: patent US4971967A

Test system: Escherichia coli NIHJ JC-2
Test: Antibacterial activity (MIC), E. coli NIHJ JC-2
Assay type: cell-based
Details: NIHJJC2; Escherichia coli NIHJ JC-2, Gram -; read-out: Minimum inhibitory concentration (MIC)
property.label: MIC

See these solved cases before continuing.
- compound: "CC1CN(c2c(F)cc3c(=O)c(C(=O)O)c4scc5n4c3c2N(C)C5)CCN1C (stereo not shown)"
  measured: "0.05 µg/mL"
- compound: "CN1Cc2csc3c(C(=O)O)c(=O)c4cc(F)c(N5CCC(O)C5)c1c4n23 (stereo not shown)"
  measured: "0.1 µg/mL"

State the recorded MIC for every item in the following list.
1. CN1Cc2csc3c(C(=O)O)c(=O)c4cc(F)c(N5CCNCC5)c1c4n23
2. CC1CN(c2c(F)cc3c(=O)c(C(=O)O)c4scc5n4c3c2N(C)C5)CC(C)N1 (stereo not shown) [Compound (E)]

1: 0.05 µg/mL; 2: 0.1 µg/mL
